TARGET OR TEST SYSTEM: T1, human OT7T175 (metastin receptor) (human, UniProt Q969F8 1-398)
T1 construct: expressed on CHO cells; also called hOT7T175; hOT7T175-expressed CHO cells
T1 sequence (Q969F8 whole entry L364H): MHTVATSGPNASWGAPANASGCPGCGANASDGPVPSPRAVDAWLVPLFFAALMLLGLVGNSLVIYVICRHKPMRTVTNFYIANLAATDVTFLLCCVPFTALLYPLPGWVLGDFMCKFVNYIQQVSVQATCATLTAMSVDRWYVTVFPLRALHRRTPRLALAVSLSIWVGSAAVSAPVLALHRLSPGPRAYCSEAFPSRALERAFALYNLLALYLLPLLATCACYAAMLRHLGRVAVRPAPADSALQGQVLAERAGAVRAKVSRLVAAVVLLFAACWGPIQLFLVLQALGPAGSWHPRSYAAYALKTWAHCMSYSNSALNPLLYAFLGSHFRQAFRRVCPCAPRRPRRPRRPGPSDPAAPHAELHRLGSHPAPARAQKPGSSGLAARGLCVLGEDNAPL
PROTOCOL NOTES: competition with Cy-5 metastin (40-54) on hOT7T175-CHO cells, FMAT
Procedure: hOT7T175-Expressed CHO cells were cultured in MEM-α medium (nucleic acid-free) containing 10% dialyzed serum. The medium was removed and the adhered cells were washed with PBS. Then, PBS containing 5 mM EDTA was added and the cells were scraped from a flask with a cell scraper. […]
Non-standard residues stand in square brackets, D forms with d. No end group written: not given here. Arg(Me) = CNC(=N)NCCC[C@H](N)C(=O)O
MEASUREMENT NAME: IC50 (nM)
Just the number in nM, nothing appended.

Input line: Let me know recorded IC50 for [dY]NWNTFGL[Arg(Me)]F-NH2 (N-terminus assumed; SMILES CNC(=N)NCCC[C@H](NC(=O)[C@H](CC(C)C)NC(=O)CNC(=O)[C@H](Cc1ccccc1)NC(=O)[C@@H](NC(=O)[C@H](CC(N)=O)NC(=O)[C@H](Cc1c[nH]c2ccccc12)NC(=O)[C@H](CC(N)=O)NC(=O)[C@H](N)Cc1ccc(O)cc1)[C@@H](C)O)C(=O)N[C@@H](Cc1ccccc1)C(N)=O, also called Compound No. 211) [[D-Tyr1,Thr5,Arg(Me)9]MS10] , thanks.
Output line: 44

Data credit: patent US20090298765A1
